fluorescence slope by entry:
biological target: Voltage-gated potassium channel subunit beta-2 (Rattus norvegicus); test: inhibitors of rat Kvbeta2 reductase activity – biochemical, NADPH fluorescence, primary screen (AID 622); conditions: recombinant KvBeta, 4-cyanobenzaldehyde reduction, at 10 µM, stronger effect = higher value;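 also: slope of raw intensity against log time taken from 70 to 1610 s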
The source made the active and inactive calls.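 The calls were made as follows: active = fluorescence slope higher than the sample average by over 3 SD (cut at about -0.22 in these data, passing the limit was not always enough); inactive = the rest.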

Param item = CCN1CCN(C(=O)c2cn(CCOC)c(=O)c3c2c2ccccc2n3C)CC1 ; retrieve measured fluorescence slope.
-0.582 (inactive)

###

nuclei count by entry:
test: reduction of polyQ htt aggregates in cells – imaging, exon1htt(103Q)mCFP cells, high-content imaging, primary screen (AID 483); conditions: exon1htt(103Q)mCFP cell line, aggregate imaging, at 2 µM; measured here: cell count, toxicity;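 also: compound exposure lasted 3 days before fixation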;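 as to nuclei count: percent of the per-plate median nuclei count of sample wells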

compound: C=C(C)Cn1c(CCCNC(=O)C(C)(C)C)nc2ccccc21
nuclei count: 106%
//
compound: COC(=O)C1=C(C)Nc2ncnn2C1c1ccco1 (centres undefined)
nuclei count: 100%
//
compound: Cc1cc2c(=O)n(Cc3ccco3)c(SCC(=O)NCc3ccco3)nc2s1
nuclei count: 84%
//
compound: COc1ccc(C)cc1S(=O)(=O)N(C)CC(=O)Nc1ccc2c(c1)OCCO2
nuclei count: 92.1%
//
compound: COc1ccccc1-c1nc(SCc2ccccn2)n[nH]1
nuclei count: 99.6%
//
compound: O=C(c1cccs1)N1CCc2ccccc21
nuclei count: 104%
//
compound: CCNS(=O)(=O)c1c(C)cc(N2CCCC2=O)cc1C
nuclei count: 88.1%
//
compound: COc1ccc(CNC(=O)C(c2ccco2)N(Cc2cccs2)C(=O)Cc2cccs2)cc1 (centres undefined)
nuclei count: 107%

Param item = COc1ccc(C(=O)CSc2nnc(-c3ccc(C)cc3)o2)cc1 ; retrieve measured nuclei count.
109%

Param item = COc1ccc(N(CC(=O)Nc2ccc3c(c2)OCCO3)S(=O)(=O)c2cccnc2)cc1 ; retrieve measured nuclei count.
117%

Param item = Cc1c(C(=O)O)sc2ncn(C)c(=O)c12 ; retrieve measured nuclei count.
116%

Param item = O=C(Nc1ccc2c(c1)nc1n2CCSC1)c1ccccc1 ; retrieve measured nuclei count.
106%

###

assay: reduction of polyQ htt aggregates in cells – imaging, exon1htt(103Q)mCFP cells, high-content imaging, primary screen (AID 483); conditions: exon1htt(103Q)mCFP cell line, aggregate imaging, at 2 µM; stronger effect = higher value;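 also: compound exposure lasted 3 days before fixation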
inhibition of aggregation by entry:
Answer format: numeric, % implied, no suffix.

compound: COc1ccc(Br)cc1C(=O)Nc1nnn(C)n1
value_unit: %
inhibition of aggregation: 5.6

Param item = Cc1sc2ncnc(SCC(=O)N3CCCC3)c2c1C ; retrieve measured inhibition of aggregation.
-6.6

Param item = COc1cccc(N2CCN(CC(=O)c3c[nH]c4ccc(OC)cc34)CC2C)c1 (stereo unspecified) ; retrieve measured inhibition of aggregation.
6

Param item = COc1ccc(C2=NOC(C(=O)NCc3ccc(F)cc3)C2)cc1OC (stereo unspecified) ; retrieve measured inhibition of aggregation.
-82.4

Param item = O=c1[nH]c2cc3c(cc2cc1C(c1nnnn1Cc1ccccc1)N1CCCc2ccccc21)OCO3 (stereo unspecified) ; retrieve measured inhibition of aggregation.
16.5

Param item = CCCN(CCC)CCNS(=O)(=O)c1ccc2c(c1)oc(=O)n2C ; retrieve measured inhibition of aggregation.
-2.5

###

experiment: reduction of polyQ htt aggregates in cells – imaging, exon1htt(103Q)mCFP cells, high-content imaging, primary screen (AID 483); conditions: exon1htt(103Q)mCFP cell line, aggregate imaging, at 2 µM; stronger effect = higher value;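 also: compound exposure lasted 3 days before fixation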
inhibition of aggregation by entry:
Answer format: numeric, % implied, no suffix.

compound: CCN(Cc1nc2ccccc2c(=O)[nH]1)Cc1nc2cc(OC)c(OC)cc2c(=O)[nH]1
inhibition of aggregation / %: 0

compound: CC1(C)CC(=O)C(C=NCc2ccc3c(c2)OCO3)=C(O)C1
inhibition of aggregation / %: 2.3

Param item = CC1(C)CC(=O)c2c(O)cc(O)cc2O1 ; retrieve measured inhibition of aggregation.
-5.4

Param item = COc1ccc(CNC(=O)c2ccc(CN3CCOCC3)cc2)cc1 ; retrieve measured inhibition of aggregation.
-5.7

Param item = CCC(C(=O)Nc1ccccc1C(=O)N1CCCC1)N1C(=O)c2ccccc2C1=O (stereo unspecified) ; retrieve measured inhibition of aggregation.
-16.8

Param item = Cc1cc(-c2ccccc2)nc2cc(C(=O)NCCCn3ccnc3)nn12 ; retrieve measured inhibition of aggregation.
19.7

FYI, the data here is from PubChem BioAssay.
